# IC50 annotations
- Assay text: microbe, parasite or virus in culture
- Assay setup: Mycobacterium tuberculosis, 96 h, read-out: pIC50 (converted)
Observed property: IC50

[[record]]
compound = "Cc1ccc(-n2cc(CN3CCOCC3)c(-c3cccc(C)c3)n2)cc1"
test_value = "> 50.1 µM"

[[record]]
compound = "CS(=O)(=O)NCC(=O)Nc1ccc(-n2cccn2)cc1"
test_value = "> 501 µM"

[[record]]
compound = "COc1ccc(C[C@H]2CN(C(=O)CN(C)C)CC[C@H]2OC)cc1"
test_value = "> 50.1 µM"

[[record]]
compound = "O=C(NCCCN1CCCCC1)c1ccc(-n2ccc3ccccc32)s1"
test_value = "> 50.1 µM"

[[record]]
compound = "Cc1ccc(CNCc2cccc3cccnc23)c(OC2CCOC2)c1 (stereo unspecified)"
test_value = "> 50.1 µM"

[[record]]
compound = "OCC(CO)Nc1ccc2c(Cl)ccc(Cl)c2n1"
test_value = "> 50.1 µM"

